Tested on: CAKI-1
Assay procedure: NCI tumour cell line growth inhibition, 48 h
The source made the active and inactive calls. Cut-off read from the data, not from the text of the source: active = GI50 up to about 1.1 µM and inactive = higher.
Your response should consist of one outcome taken from active, inactive

Challenge: How was Cc1ccc(C2=Nc3cc(C)c(Cl)cc3S(=O)(=O)NN2)cc1 classified in this test?
Response given: inactive

Challenge: How was N=C1OC(CN2CCN(c3ccccc3)CC2)CN1C(=O)Nc1ccccc1 (centres undefined) classified in this test?
Response given: inactive

Challenge: How was Cc1c2c(n(CCc3ccc(Cl)cc3)c1C)NC(c1ccccc1)C(C#N)S2(=O)=O (centres undefined) classified in this test?
Response given: inactive

Challenge: How was CCOC(=O)C(NCc1cccc(C(F)(F)F)c1)(NC(=O)CC)C(F)(F)F (centres undefined) classified in this test?
Response given: inactive

Challenge: How was O=C1c2ccccc2-c2ccc(/N=N/c3c(O)ccc4ccccc34)cc21 classified in this test?
Response given: inactive

Challenge: How was O=C(O)c1cc(O)c2c(c1)C([C@@H]1c3cccc(O)c3C(=O)c3c(O)cc(C(=O)O)cc31)c1cccc(O)c1C2=O (some centres undefined) classified in this test?
Response given: inactive

Challenge: How was Cc1cc(C)c2c(=O)n(CC(O)CN(Cc3ccccc3)CC(O)Cn3sc4nc(C)cc(C)c4c3=O)sc2n1 (centres undefined) classified in this test?
Response given: inactive

Challenge: How was COc1cccc(N2C(=O)CSC2c2cccc(Oc3ccccc3)c2)c1 (centres undefined) classified in this test?
Response given: inactive

Challenge: How was CC[N+]1(C)CCC(O)(/C=C/c2ccc(Cl)c(Cl)c2)C(C(=O)/C=C/c2ccc(Cl)c(Cl)c2)C1 (centres undefined) classified in this test?
Response given: inactive

Challenge: How was CC(C)(C)OC(=O)N1CC(O)O[C@H](c2ccccc2)[C@@H]1c1ccccc1 (some centres undefined) classified in this test?
Response given: inactive

Challenge: How was CCOC(=O)C1=NN(c2ccc(Cl)cc2)C2=CC(C)=NN(C)C(=S)N21 classified in this test?
Response given: inactive

Challenge: How was Cc1nc2ccccc2c(=O)n1NC(=S)Nc1ccccc1 classified in this test?
Response given: inactive

Challenge: How was CC(C)(O)C1OCC(C2CCC3(C)C4=CCC5C(C)(C)C(O)CCC5(C)C4CCC23C)CC1O (centres undefined) classified in this test?
Response given: inactive

Challenge: How was NS(=O)(=O)c1ccc(-c2ccc([As](=O)(O)O)cc2)cc1 classified in this test?
Response given: inactive

Challenge: How was CC1CCN(c2nnc(Cl)cc2C(=O)c2ccccc2)CC1 classified in this test?
Response given: inactive

Challenge: How was S=C1N(/N=C/c2c3ccccc3cc3ccccc23)C(=N\c2ccccc2)/C(=N/c2ccccc2)N1c1ccccc1 classified in this test?
Response given: inactive

Challenge: How was Cc1ccc(C(=O)Cc2nc3c([nH]c2=O)c(C)nn3-c2ccccc2)c(C)c1 classified in this test?
Response given: inactive

Challenge: How was OCCCOC(c1ccccc1)(c1ccccc1)c1ccccc1 classified in this test?
Response given: inactive

Challenge: How was CC(=O)/C(=C/NC(=S)c1ccncc1)C(=O)Nc1ccccc1C classified in this test?
Response given: inactive

Challenge: How was CC12CCC(=O)[C@@]1(C)CCCC2O (some centres undefined) classified in this test?
Response given: inactive

Challenge: How was COC(=O)c1ccccc1NC(=O)/C(=N\NC(C)(C)C)C(C#N)c1nc(-c2ccc([N+](=O)[O-])cc2)cs1 (centres undefined) classified in this test?
Response given: inactive

Challenge: How was CN(C)c1nc(N(C)C)nc(N(C)C23CC4CC(CC(C4)C2)C3)n1 classified in this test?
Response given: inactive

Challenge: How was C[n+]1[se]c2ccccc2c1Cl classified in this test?
Response given: inactive

Challenge: How was CN(C)c1ccc(/C=C(\NC(=O)c2ccccc2)C(=O)Nc2ccccc2C(=O)NN2C(=O)CSC2c2ccc(N(C)C)cc2)cc1 (centres undefined) classified in this test?
Response given: inactive

Challenge: How was CCOC(=O)Cc1csc(N/N=C2\C(=O)Nc3ccccc32)n1 classified in this test?
Response given: inactive

Challenge: How was CSCCC(NC(=O)OC(C)(C)C)C(=O)NCCNc1ccc(NCCNC(=O)C(CCSC)NC(=O)OC(C)(C)C)c2c1C(=O)c1ccccc1C2=O (centres undefined) classified in this test?
Response given: inactive

Challenge: How was CC(C)C1(O)C(c2ccccc2)=C(c2ccccc2)C(c2ccccc2)=C1c1ccccc1 classified in this test?
Response given: inactive

Challenge: How was COC(=O)C(C(=O)C(=O)NC1=C(Cl)C(=O)c2ccccc2C1=O)c1csc(-n2nc(-c3ccccc3)cc2-c2ccccc2)n1 (centres undefined) classified in this test?
Response given: inactive

Challenge: How was Cc1ccc(NC(=O)/C(=N/NC(=O)CC#N)C2C(=O)N(c3ccccc3)N=C2N)cc1C (centres undefined) classified in this test?
Response given: inactive

Challenge: How was O=C1C(Cl)C(c2cc3cc(Br)ccc3nc2Cl)N1c1ccc(F)c(Cl)c1 (centres undefined) classified in this test?
Response given: active

Challenge: How was COc1ccc(S(=O)(=O)N(C)CC(=O)O)cc1 classified in this test?
Response given: inactive

Challenge: How was O=c1oc2c3ccc4ccccc4c3n(CCN3CCOCC3)c2c2ccccc12 classified in this test?
Response given: inactive

Challenge: How was C=C1C[C@@H](O)C[C@@]2(C)C[C@@H]3OC(=O)C(=C)[C@@H]3C[C@H]12 classified in this test?
Response given: inactive

Challenge: How was CCN(CC)CCC1(C(=O)OC)SCCc2ccc(C)cc21 (centres undefined) classified in this test?
Response given: inactive

Challenge: How was CC(C)C(C=O)C(O)(C(F)(F)F)C(F)(F)F (centres undefined) classified in this test?
Response given: inactive

Challenge: How was N=C(N)NS(=O)(=O)c1ccc(Nc2c3ccccc3nc3ccc(C(=O)Nc4ccc(S(N)(=O)=O)cc4)cc23)cc1 classified in this test?
Response given: inactive

Challenge: How was CC(C)=CCOc1cc(NC(=S)c2ccoc2C)ccc1Cl [UC 781] classified in this test?
Response given: inactive

Challenge: How was O=C(OCC1OC(n2nc(Cn3nnc(-c4cccnc4)n3)n(-c3cccc4ccccc34)c2=S)C(OC(=O)c2ccccc2)C1OC(=O)c1ccccc1)c1ccccc1 (centres undefined) classified in this test?
Response given: inactive

Challenge: How was CCOc1c2ccsc2c(OCC)c2ccsc12 classified in this test?
Response given: inactive
